# Organism: Sus scrofa
# Test: Activity of pig recombinant catechol-O-methyltransferase assessed per unit enzyme
Measurement Label: Activity (pmol/min)
Please reply with the bare figure in pmol/min and do not write the unit itself.

Data request: Look up Activity of N#CC(C#N)=Cc1ccc(O)cc1 and report it.
Data returned: 0.05

Data request: Look up Activity of N#C/C(=C\c1ccc(O)c(O)c1)C(=O)NCCCCc1ccccc1 and report it.
Data returned: 2.84

Data request: Look up Activity of N#C/C(=C\c1ccc(O)c(O)c1)C(=O)O and report it.
Data returned: 3.67

Data request: Look up Activity of N#CC(C#N)=Cc1cc(O)c(O)c([N+](=O)[O-])c1 and report it.
Data returned: 0.05

Data request: Look up Activity of C[C@H](NC(=O)/C(C#N)=C/c1ccc(O)c(O)c1)c1ccccc1 and report it.
Data returned: 3.08

Data request: Look up Activity of N#C/C(=C\c1ccc(O)c(O)c1)C(N)=S and report it.
Data returned: 2.45

Data request: Look up Activity of N#CC(C#N)=Cc1cc(O)c(O)c(O)c1 and report it.
Data returned: 1.65

* * *

# Species on record: Sus scrofa
# Test: Activity of pig recombinant catechol-O-methyltransferase assessed per unit enzyme
Provide the recorded Activity for the entries that follow.

Data request: Look up Activity of N#CC(C#N)=C(N)/C(C#N)=C/c1cc(O)c(O)c(O)c1 and report it.
Data returned: 1.79 pmol/min

Data request: Look up Activity of C[C@@H](NC(=O)/C(C#N)=C/c1ccc(O)c(O)c1)c1ccccc1 and report it.
Data returned: 3.06 pmol/min

Data request: Look up Activity of COc1c(C(C)(C)C)cc(C=C(C#N)C#N)cc1C(C)(C)C and report it.
Data returned: 0.04 pmol/min

Data request: Look up Activity of N#C/C(=C\c1ccc(O)c(O)c1)C(N)=O and report it.
Data returned: 2.98 pmol/min

Data request: Look up Activity of N#CC(C#N)=Cc1ccc(O)c(O)c1 and report it.
Data returned: 2.44 pmol/min

Data request: Look up Activity of N#C/C(=C\c1ccc(O)c(O)c1)C(=O)NCCCc1ccccc1 and report it.
Data returned: 3.11 pmol/min

Data request: Look up Activity of N#C/C(=C\c1ccc(O)c(O)c1)C(=O)NCc1ccccc1 and report it.
Data returned: 3.06 pmol/min

The origin of these recorded values is ChEMBL document CHEMBL1145513.
